Molecular target: RsTSPO A139T mutant (Cereibacter sphaeroides, UniProt Q9RFC8, A139T)
Sequence (Q9RFC8 whole entry A139T): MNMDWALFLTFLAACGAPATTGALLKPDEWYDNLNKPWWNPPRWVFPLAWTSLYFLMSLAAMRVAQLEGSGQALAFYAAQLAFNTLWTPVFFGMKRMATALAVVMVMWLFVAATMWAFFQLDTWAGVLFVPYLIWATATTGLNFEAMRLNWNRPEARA
Assay: Ligand binding affinity of purified RsTSPO A139T mutant
Quantity kind: Kd (µM)
API: value field is a number in µM; no unit string.

Prompt: Please look at this compound and report its Kd: C=CC1=C(C)c2cc3[nH]c(cc4nc(cc5[nH]c(cc1n2)c(C)c5CCC(=O)O)C(CCC(=O)O)=C4C)c(C)c3C=C [PpIX, protoporphyrin IX]
Response: 1.9

More entries:
Prompt: Please look at this compound and report its Kd: CCC(C)N(C)C(=O)c1cc2ccccc2c(-c2ccccc2Cl)n1 (stereo not drawn) [PK11195]
Response: 42
